Assay type: cell-based
CONDITION_NOTES: Cell viability (%)
Bridge positions count the residues as written; N and C are the ends. Square brackets hold non-standard residues; d marks the D form. Peptide text beside a SMILES is read from it. Pro(cis-4-guanidino) = NC(N)=N[C@@H]1CN[C@H](C(=O)O)C1; Phe(4-guanidino) = N=C(N)Nc1ccc(C[C@H](N)C(=O)O)cc1
Below, each entry is listed with its recorded viability at 2 h, 3.12 µM.

COMPOUND | viability at 2 h, 3.12 µM [%]
CC[C@H](C)[C@H](NC(=O)[C@H](CCCNC(=N)N)NC(=O)[C@H]1CCCCNC(=N)NCCCC[C@H](NC(=O)[C@H](Cc2ccccc2)NC(=O)[C@H](Cc2c[nH]c3ccccc23)NC(=O)[C@@H]2CCCN2C(=O)[C@@H](NC(=O)[C@@H](N)Cc2ccccc2)C(C)C)C(=O)N[C@@H](CCCCN)C(=O)N[C@@H](Cc2ccccc2)C(=O)N[C@H](CC(C)C)C(=O)N1)C(=O)N[C@@H](CC(C)C)C(N)=O [Peptide 12, FVPWF{KKFlk}RIL] | 106
CC[C@H](C)[C@H](NC(=O)[C@H](CCCNC(=N)N)NC(=O)[C@H]1CCC(=O)NCCCC[C@H](NC(=O)[C@H](Cc2ccccc2)NC(=O)[C@H](Cc2c[nH]c3ccccc23)NC(=O)[C@@H]2CCCN2C(=O)[C@@H](NC(=O)[C@@H](N)Cc2ccc(NC(=N)N)cc2)C(C)C)C(=O)N[C@@H](CCCCN)C(=O)N[C@@H](Cc2ccccc2)C(=O)N[C@H](CC(C)C)C(=O)N1)C(=O)N[C@@H](CC(C)C)C(N)=O [Peptide 6, (p-guanidino)FVPWF[KKFle]RIL] (H-[Phe(4-guanidino)]VPWFKKF[dL][dE]RIL-NH2; lactam 6-10) | 111
CC[C@H](C)[C@H](NC(=O)[C@H](CCCNC(=N)N)NC(=O)[C@H]1CCC(=O)NCCCC[C@H](NC(=O)[C@H](Cc2ccccc2)NC(=O)[C@H](Cc2c[nH]c3ccccc23)NC(=O)[C@@H]2C[C@H](NC(=N)N)CN2C(=O)[C@@H](NC(=O)[C@@H](N)Cc2ccccc2)C(C)C)C(=O)N[C@@H](CCCCN)C(=O)N[C@@H](Cc2ccccc2)C(=O)N[C@H](CC(C)C)C(=O)N1)C(=O)N[C@@H](CC(C)C)C(N)=O [Peptide 7, FV(4-guanidino)PWF[KKFle]RIL] (H-FV[Pro(cis-4-guanidino)]WFKKF[dL][dE]RIL-NH2; lactam 6-10) | 105

----------
Assay type: cell-based, human
CONDITION_NOTES: human, Cell viability (%)
Bridge positions count the residues as written; N and C are the ends. Square brackets hold non-standard residues; d marks the D form. Peptide text beside a SMILES is read from it. Phe(4-guanidino) = N=C(N)Nc1ccc(C[C@H](N)C(=O)O)cc1
Recorded viability at 24 h, 6.25 µM, one value per entry.

COMPOUND | VALUE_UNITS | viability at 24 h, 6.25 µM
CC[C@H](C)[C@H](NC(=O)[C@H](CCCNC(=N)N)NC(=O)[C@H]1CCC(=O)NCCCC[C@H](NC(=O)[C@H](Cc2ccccc2)NC(=O)[C@H](Cc2c[nH]c3ccccc23)NC(=O)[C@@H]2CCCN2C(=O)[C@@H](NC(=O)[C@@H](N)Cc2ccc(NC(=N)N)cc2)C(C)C)C(=O)N[C@@H](CCCCN)C(=O)N[C@@H](Cc2ccccc2)C(=O)N[C@H](CC(C)C)C(=O)N1)C(=O)N[C@@H](CC(C)C)C(N)=O [Peptide 6, (p-guanidino)FVPWF[KKFle]RIL] (H-[Phe(4-guanidino)]VPWFKKF[dL][dE]RIL-NH2; lactam 6-10) | % | 93
CC[C@H](C)[C@H](NC(=O)[C@H](CCCNC(=N)N)NC(=O)[C@H]1CCC(=O)NCCCC[C@H](NC(=O)[C@H](Cc2ccc(NC(=N)N)cc2)NC(=O)[C@H](Cc2c[nH]c3ccccc23)NC(=O)[C@@H]2CCCN2C(=O)[C@@H](NC(=O)[C@@H](N)Cc2ccccc2)C(C)C)C(=O)N[C@@H](CCCCN)C(=O)N[C@@H](Cc2ccccc2)C(=O)N[C@H](CC(C)C)C(=O)N1)C(=O)N[C@@H](CC(C)C)C(N)=O [Peptide 8, FVPW(p-guanidino)F[KKFle]RIL] (H-FVPW[Phe(4-guanidino)]KKF[dL][dE]RIL-NH2; lactam 6-10) | % | 105
CC[C@H](C)[C@H](NC(=O)[C@H](CCCNC(=N)N)NC(=O)[C@H]1CCCCNC(=N)NCCCC[C@H](NC(=O)[C@H](Cc2ccccc2)NC(=O)[C@H](Cc2c[nH]c3ccccc23)NC(=O)[C@@H]2CCCN2C(=O)[C@@H](NC(=O)[C@@H](N)Cc2ccccc2)C(C)C)C(=O)N[C@@H](CCCCN)C(=O)N[C@@H](Cc2ccccc2)C(=O)N[C@H](CC(C)C)C(=O)N1)C(=O)N[C@@H](CC(C)C)C(N)=O [Peptide 12, FVPWF{KKFlk}RIL] | % | 101

----------
Assay type: cell-based
CONDITION_NOTES: Cell viability (%)
Bridge positions count the residues as written; N and C are the ends. Square brackets hold non-standard residues; d marks the D form. Peptide text beside a SMILES is read from it. Pro(cis-4-guanidino) = NC(N)=N[C@@H]1CN[C@H](C(=O)O)C1; Phe(4-guanidino) = N=C(N)Nc1ccc(C[C@H](N)C(=O)O)cc1

MOLECULE | VALUE_UNITS | viability at 2 h, 25 µM
CC[C@H](C)[C@H](NC(=O)[C@H](CCCNC(=N)N)NC(=O)[C@H]1CCC(=O)NCCCC[C@H](NC(=O)[C@H](Cc2ccccc2)NC(=O)[C@H](Cc2c[nH]c3ccccc23)NC(=O)[C@@H]2C[C@H](NC(=N)N)CN2C(=O)[C@@H](NC(=O)[C@@H](N)Cc2ccccc2)C(C)C)C(=O)N[C@@H](CCCCN)C(=O)N[C@@H](Cc2ccccc2)C(=O)N[C@H](CC(C)C)C(=O)N1)C(=O)N[C@@H](CC(C)C)C(N)=O [Peptide 7, FV(4-guanidino)PWF[KKFle]RIL] (H-FV[Pro(cis-4-guanidino)]WFKKF[dL][dE]RIL-NH2; lactam 6-10) | % | 28
CC[C@H](C)[C@H](NC(=O)[C@H](CCCNC(=N)N)NC(=O)[C@H]1CCCCNC(=N)NCCCC[C@H](NC(=O)[C@H](Cc2ccccc2)NC(=O)[C@H](Cc2c[nH]c3ccccc23)NC(=O)[C@@H]2CCCN2C(=O)[C@@H](NC(=O)[C@@H](N)Cc2ccccc2)C(C)C)C(=O)N[C@@H](CCCCN)C(=O)N[C@@H](Cc2ccccc2)C(=O)N[C@H](CC(C)C)C(=O)N1)C(=O)N[C@@H](CC(C)C)C(N)=O [Peptide 12, FVPWF{KKFlk}RIL] | % | 14
CC[C@H](C)[C@H](NC(=O)[C@H](CCCNC(=N)N)NC(=O)[C@H]1CCC(=O)NCCCC[C@H](NC(=O)[C@H](Cc2ccccc2)NC(=O)[C@H](Cc2c[nH]c3ccccc23)NC(=O)[C@@H]2CCCN2C(=O)[C@@H](NC(=O)[C@@H](N)Cc2ccc(NC(=N)N)cc2)C(C)C)C(=O)N[C@@H](CCCCN)C(=O)N[C@@H](Cc2ccccc2)C(=O)N[C@H](CC(C)C)C(=O)N1)C(=O)N[C@@H](CC(C)C)C(N)=O [Peptide 6, (p-guanidino)FVPWF[KKFle]RIL] (H-[Phe(4-guanidino)]VPWFKKF[dL][dE]RIL-NH2; lactam 6-10) | % | 100

----------
Assay type: cell-based, human
CONDITION_NOTES: human, Cell viability (%)
Bridge positions count the residues as written; N and C are the ends. Square brackets hold non-standard residues; d marks the D form. Peptide text beside a SMILES is read from it. Phe(4-guanidino) = N=C(N)Nc1ccc(C[C@H](N)C(=O)O)cc1
Parameter viability at 24 h, 6.25 µM: see the listing below.
MEASURED_METRIC: viability at 24 h, 6.25 µM (%)

MOLECULE | READOUT_NUMBER
CC[C@H](C)[C@H](NC(=O)[C@H](CCCNC(=N)N)NC(=O)[C@@H]1CCCNC(=N)NCCC[C@H](NC(=O)[C@H](Cc2ccccc2)NC(=O)[C@H](Cc2c[nH]c3ccccc23)NC(=O)[C@@H]2CCCN2C(=O)[C@@H](NC(=O)[C@@H](N)Cc2ccccc2)C(C)C)C(=O)N[C@@H](CCCCN)C(=O)N[C@@H](Cc2ccccc2)C(=O)N[C@H](CC(C)C)C(=O)N1)C(=O)N[C@@H](CC(C)C)C(N)=O [Peptide 13, FVPWF{OrnKFlOrn}RIL] | 103
CC[C@H](C)[C@H](NC(=O)[C@H](CCCNC(=N)N)NC(=O)[C@H]1CCC(=O)NCCCC[C@H](NC(=O)[C@H](Cc2ccccc2)NC(=O)[C@H](Cc2c[nH]c3ccccc23)NC(=O)[C@@H]2CCCN2C(=O)[C@@H](NC(=O)[C@@H](N)Cc2ccccc2)C(C)C)C(=O)N[C@@H](CCCCN)C(=O)N[C@@H](Cc2ccc(NC(=N)N)cc2)C(=O)N[C@H](CC(C)C)C(=O)N1)C(=O)N[C@@H](CC(C)C)C(N)=O [Peptide 10, FVPWF[KK(p-guanidino)Fle]RIL] (H-FVPWFKK[Phe(4-guanidino)][dL][dE]RIL-NH2; lactam 6-10) | 104
